Hey, just so you know, these numbers are from patent US20110318339A1.

Molecular target: T1, recombinant human DLL4 (Cat# 1506-D4/CF, R&D Systems) (human, UniProt Q9NR61 27-529)
T1 construct: Bought protein; also called hDLL4; rHuman DLL4
Experiment: ELISA, DLL4 coated, Fab 0.14 nM
Experimental: The plate was blocked by adding 1% BSA in Tris-buffered Saline Tween (TBST) and incubating for 1 hour at room temperature followed by washing 2 times with 150 μl TBST. A Fab antibody was serially diluted in 1% BSA in PBS. […] The reaction was immediately halted by the addition of 50 μl 0.5M H₂SO₄ and the absorbance at 450 nm was measured using an ELISA plate reader.
MEASURED_ATTRIBUTE: ELISA absorbance at 450 nm (A450)
Answers are plain numbers, in A450.

Examples from the recorded data:
{"BINDER": "Fab VH5-51_IGHD5-18*01>3_IGHJ4*01 G100K/G104T G24T/S28R/G35V & V3-4_IGLJ1*01 V91L/S96P (Fab, V domains shown, Fab made in E. coli: VH on CH1 with His6 and Flag tags (Plasmid A), VL on lambda CL (Plasmid E); also called H: KT TRV & L: LP) VH: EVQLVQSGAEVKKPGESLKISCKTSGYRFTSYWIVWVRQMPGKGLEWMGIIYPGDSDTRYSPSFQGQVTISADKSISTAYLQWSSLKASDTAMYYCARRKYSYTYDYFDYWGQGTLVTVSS VL: QTVVTQEPSFSVSPGGTVTLTCGLSSGSVSTSYYPSWYQQTPGQAPRTLIYSTNTRSSGVPDRFSGSILGNKAALTITGAQADDESDYYCLLYMGPGISYVFGTGTKVTVL", "MEASURED_ATTRIBUTE": "ELISA absorbance at 450 nm", "QUANTITY_UNIT": "A450", "REPORTED": 0.03}
{"BINDER": "Fab VH5-51_IGHD5-18*01>3_IGHJ4*01 G100K/G104T G24T/S28R/G35V & V3-4_IGLJ1*01 V91L/S96P S52G (Fab, V domains shown, Fab made in E. coli: VH on CH1 with His6 and Flag tags (Plasmid A), VL on lambda CL (Plasmid E); also called H: KT TRV & L: LP S52G) VH: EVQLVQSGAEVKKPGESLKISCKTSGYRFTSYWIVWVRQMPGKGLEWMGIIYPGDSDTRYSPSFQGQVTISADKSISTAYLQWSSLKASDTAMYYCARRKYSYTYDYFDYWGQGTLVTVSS VL: QTVVTQEPSFSVSPGGTVTLTCGLSSGSVSTSYYPSWYQQTPGQAPRTLIYGTNTRSSGVPDRFSGSILGNKAALTITGAQADDESDYYCLLYMGPGISYVFGTGTKVTVL", "MEASURED_ATTRIBUTE": "ELISA absorbance at 450 nm", "QUANTITY_UNIT": "A450", "REPORTED": 0.02}
{"BINDER": "Fab VH5-51_IGHD5-18*01>3_IGHJ4*01 G100K/G104T G24T/S28R/G35V & V3-4_IGLJ1*01 V91L/S96P S52M (Fab, V domains shown, Fab made in E. coli: VH on CH1 with His6 and Flag tags (Plasmid A), VL on lambda CL (Plasmid E); also called H: KT TRV & L: LP S52M) VH: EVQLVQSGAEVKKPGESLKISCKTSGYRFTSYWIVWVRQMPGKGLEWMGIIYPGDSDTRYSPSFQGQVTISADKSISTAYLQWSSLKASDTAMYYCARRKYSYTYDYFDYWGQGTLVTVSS VL: QTVVTQEPSFSVSPGGTVTLTCGLSSGSVSTSYYPSWYQQTPGQAPRTLIYMTNTRSSGVPDRFSGSILGNKAALTITGAQADDESDYYCLLYMGPGISYVFGTGTKVTVL", "MEASURED_ATTRIBUTE": "ELISA absorbance at 450 nm", "QUANTITY_UNIT": "A450", "REPORTED": 0.02}

Consider now this further binder.
Entry Fab VH5-51_IGHD5-18*01>3_IGHJ4*01 G100K/G104T G24T/S28R/G35V & V3-4_IGLJ1*01 (Fab, V domains shown, Fab made in E. coli: VH on CH1 with His6 and Flag tags (Plasmid A), VL on lambda CL (Plasmid E); also called H: KT TRV & L: wt) VH: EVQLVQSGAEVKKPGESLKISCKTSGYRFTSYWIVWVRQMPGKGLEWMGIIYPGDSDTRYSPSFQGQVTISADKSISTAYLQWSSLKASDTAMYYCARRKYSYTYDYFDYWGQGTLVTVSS VL: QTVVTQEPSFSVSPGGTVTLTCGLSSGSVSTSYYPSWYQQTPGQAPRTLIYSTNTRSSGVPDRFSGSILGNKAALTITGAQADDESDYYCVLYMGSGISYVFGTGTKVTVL : reported ELISA absorbance at 450 nm = ?
0
